Tested on: giant foxtail (Setaria faberii)
procedure_summary: Test A preemergence
Format: in vivo
experimental_conditions: Setaria faberi, pre-emergence, 240 h, 31 g ai/ha, Preemergence; 0 to 100 scale where 0 is no effect and 100 is complete control; read-out: Foxtail, Giant plant response rating
readout_name: pest or weed control at 31 g/ha (%)
The answer is to be given in %; state only the numeric part.

CN1C[C@H](c2cccc(C(F)(F)F)c2)[C@@H](C(=O)Nc2cnccc2C(F)(F)F)C1=O    100
CON1CC[C@H](c2ccc(C(F)(F)F)cc2)[C@@H](C(=O)Nc2ccc(F)c(F)c2F)C1=O    0
CN1C[C@H](c2cc(F)cc(C(F)(F)F)c2)[C@@H](C(=O)Nc2cccnc2F)C1=O    90
Cc1ccncc1NC(=O)[C@H]1C(=O)N(C)C[C@@H]1c1ccc(C(F)(F)F)cc1    0
CN1C[C@H](c2csc3c2CCC3)[C@@H](C(=O)Nc2ccc(F)c(F)c2F)C1=O    100
CC(C)Oc1cc([C@H]2CN(C)C(=O)[C@@H]2C(=O)Nc2ccccc2F)ccc1F    100
CN1C[C@H](c2ccc(C(F)(F)F)cc2)[C@@H](C(=O)Nc2ccccc2-n2cccn2)C1=O    0

As a next step, examine the molecule that follows.
Indicate the recorded pest or weed control at 31 g/ha value for this molecule: "CN1C[C@H](c2csc3c2CCC3)[C@@H](C(=O)Nc2ccccc2F)C1=O" 90

FYI, the data here is from patent US12077503B2.
